# tgt: DA Transporter (DAT) Sites in Mouse Brain (Mus musculus)
# Construct: Striatum was used to determine occupancy of DA transporter sites; from tissue; host or cells: C57BL/6 mouse striatum homogenate
# Sequence (Q61327 whole entry): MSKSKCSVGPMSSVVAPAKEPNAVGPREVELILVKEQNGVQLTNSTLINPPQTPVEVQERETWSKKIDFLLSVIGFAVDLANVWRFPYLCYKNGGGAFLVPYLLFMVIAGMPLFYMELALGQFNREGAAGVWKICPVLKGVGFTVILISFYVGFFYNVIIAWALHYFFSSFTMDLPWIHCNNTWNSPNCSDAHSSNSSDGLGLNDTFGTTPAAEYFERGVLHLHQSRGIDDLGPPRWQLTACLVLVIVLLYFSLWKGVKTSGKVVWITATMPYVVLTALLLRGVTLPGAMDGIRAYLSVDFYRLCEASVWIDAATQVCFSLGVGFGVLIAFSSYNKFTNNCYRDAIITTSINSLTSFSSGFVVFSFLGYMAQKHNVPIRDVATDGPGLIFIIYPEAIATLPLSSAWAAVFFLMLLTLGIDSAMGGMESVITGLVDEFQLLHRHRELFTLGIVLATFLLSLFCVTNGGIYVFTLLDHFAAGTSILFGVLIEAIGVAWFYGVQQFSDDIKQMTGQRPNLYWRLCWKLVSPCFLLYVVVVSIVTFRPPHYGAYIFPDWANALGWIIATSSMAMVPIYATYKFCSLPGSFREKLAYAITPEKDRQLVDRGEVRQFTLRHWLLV
# method summary: Ex vivo [3H] WIN 35428 binding after oral dosing
# Design: species or system C57BL/6 mice
# test parameters: 10 mg/kg, 60 minutes after treatment, vs vehicle
# key: entry, value: % Transporter Occupancy, DAT

Study these solved cases before continuing.
compound="CNCC1(c2ccc(Cl)c(Cl)c2)CCC(C)(O)CC1 (centres unmarked) [Compound 276]" endpoint="% Transporter Occupancy, DAT" result=-6%
compound="CC(N(C)C)C1(c2ccc3ccccc3c2)CCCCC1 (single isomer, unassigned) [56 E1]" endpoint="% Transporter Occupancy, DAT" result=23%
compound="CNC(C)C1(c2ccc3ccccc3c2)CCCCC1 (single isomer, unassigned) [58 E1]" endpoint="% Transporter Occupancy, DAT" result=-2%
compound="CN(C)C[C@]1(c2ccc3ccccc3c2)CC[C@](C)(O)CC1 [Compound 225]" endpoint="% Transporter Occupancy, DAT" result=8%

Okay, next one:
Problem: Param item = CN(C)CC1(c2ccc(Cl)c(Cl)c2)CCC(C)(O)CC1 (centres unmarked) [Compound 277] ; retrieve measured % Transporter Occupancy, DAT.
Solution: 23%
